- Assay remarks: Volume of distribution in Beagle dog at 0.004 to 0.1 umol/kg, iv or 0.1 to 1 umol/kg, po via gavage measured up to 79 hrs
- Format: ADME, organism-based, Canis lupus familiaris
- Settings: in vivo
Measure: Vd

So what's the measured Vd for this one? Cc1cc(-c2ccc(C(=O)[C@@H]3CCCC[C@H]3C(=O)Nc3cn(C)nc3C)cc2)n[nH]1 0.98 L/kg

====

- Assay remarks: Ratio of drug level in blood to plasma in human at 10 uM incubated for 30 mins by LC-MS/MS analysis
- Type: ADME, cell-free
Measure: blood plasma ratio at 0.5 h, 10 µM
When you answer, write just the number.

So what's the measured blood plasma ratio at 0.5 h, 10 µM for this one? Cc1cc(-c2ccc(C(=O)[C@@H]3CCCC[C@H]3C(=O)Nc3cn(C)nc3C)cc2)n[nH]1 0.74

====

- Assay remarks: Oral bioavailability in Beagle dog at 0.1 to 1 umol/kg administered twice daily via gavage for 3 days and measured up to 79 hrs
- Assay type: ADME, organism-based, Canis lupus familiaris
- Settings: in vivo
Measure: bioavailability (%)
Respond with the bare value in %.

So what's the measured bioavailability for this one? Cc1cc(-c2ccc(C(=O)[C@@H]3CCCC[C@H]3C(=O)Nc3cn(C)nc3C)cc2)n[nH]1 51

====

- Assay remarks: Bioavailability in po dosed Sprague-Dawley rat
- Assay type: ADME, organism-based
- Settings: in vivo
Measure: bioavailability (%)
Respond with the bare value in %.

So what's the measured bioavailability for this one? Cc1cc(-c2ccc(C(=O)[C@@H]3CCCC[C@H]3C(=O)Nc3cn(C)nc3C)cc2)n[nH]1 47

So what's the measured bioavailability for this one? Cc1nn(C)cc1NC(=O)[C@@H]1CCCC[C@H]1C(=O)c1ccc(-c2cc[nH]n2)cc1F (racemic) 85

So what's the measured bioavailability for this one? Cn1ncc(NC(=O)[C@@H]2CCCC[C@H]2C(=O)c2ccc(-c3cc[nH]n3)cc2)c1C(F)(F)F 100

So what's the measured bioavailability for this one? Cn1cc(NC(=O)[C@@H]2CCCC[C@H]2C(=O)c2ccc(-c3cc[nH]n3)cc2)c(C(F)(F)F)n1 62

So what's the measured bioavailability for this one? Cc1cc(-c2ccc(C(=O)[C@@H]3CCCC[C@H]3C(=O)Nc3cn(C)nc3C(N)=O)cc2)n[nH]1 40

So what's the measured bioavailability for this one? Cn1ncc(NC(=O)[C@@H]2C[C@@H]3C[C@@H]3C[C@H]2C(=O)c2ccc(-c3cc[nH]n3)cc2)c1C(F)(F)F 100

====

- Assay remarks: Intrinsic clearance in cryopreserved human hepatocytes assessed as per million cells at 1 uM measured up to 60 mins by LC-MS/MS analysis
- Format: ADME, cell-based, Hepatocyte
- Settings: read-out: CLH
For each of the molecules below, state its hepatocyte CLint at 1 µM.
Respond with the bare value in µL/min/1e6 cells.

So what's the measured hepatocyte CLint at 1 µM for this one? O=C(Nc1cnn2cccnc12)[C@@H]1CCCC[C@H]1C(=O)c1ccc(-c2cc[nH]n2)cc1 5

So what's the measured hepatocyte CLint at 1 µM for this one? Cc1cc(-c2ccc(C(=O)[C@@H]3CCCC[C@H]3C(=O)Nc3cn(C)nc3C#N)cc2)n[nH]1 6

So what's the measured hepatocyte CLint at 1 µM for this one? Cn1ncc(NC(=O)[C@@H]2C[C@@H]3C[C@@H]3C[C@H]2C(=O)c2ccc(-c3cc[nH]n3)cc2)c1C(F)(F)F 12

So what's the measured hepatocyte CLint at 1 µM for this one? Cc1nn(C)cc1NC(=O)[C@@H]1CCCC[C@H]1C(=O)c1ccc(-c2cc[nH]n2)cc1F (racemic) 14

So what's the measured hepatocyte CLint at 1 µM for this one? Cc1cc(-c2ccc(C(=O)[C@@H]3CCCC[C@H]3C(=O)Nc3cn(C)nc3C(N)=O)cc2)n[nH]1 12

So what's the measured hepatocyte CLint at 1 µM for this one? Cc1cc(-c2ccc3c([C@@H]4CCCC[C@H]4C(=O)Nc4cn(C)nc4C(N)=O)noc3c2)n[nH]1 13

So what's the measured hepatocyte CLint at 1 µM for this one? Cc1cc(-c2ccc(C(=O)[C@@H]3CCCC[C@H]3C(=O)Nc3cn(C)nc3C)cc2)n[nH]1 4

So what's the measured hepatocyte CLint at 1 µM for this one? Cn1cc(NC(=O)[C@@H]2CCCC[C@H]2C(=O)c2ccc(-c3cc[nH]n3)cc2)c(C(F)(F)F)n1 12

====

- Assay remarks: Clearance in po or iv dosed Sprague-Dawley rat
- Type: ADME, organism-based
- Settings: in vivo
// boundary case: clearance equal to 6 mL/min/kg maps to f; strictly smaller maps to t

Hi there! Is clearance for Cn1cc(NC(=O)[C@@H]2CCCC[C@H]2C(=O)c2ccc(-c3cc[nH]n3)cc2)c(C(F)(F)F)n1 below 6 mL/min/kg, do you know? f

Hi there! Is clearance for Cn1ncc(NC(=O)[C@@H]2C[C@@H]3C[C@@H]3C[C@H]2C(=O)c2ccc(-c3cc[nH]n3)cc2)c1C(F)(F)F below 6 mL/min/kg, do you know? f

Hi there! Is clearance for Cc1cc(-c2ccc(C(=O)[C@@H]3CCCC[C@H]3C(=O)Nc3cn(C)nc3C(N)=O)cc2)n[nH]1 below 6 mL/min/kg, do you know? t

Hi there! Is clearance for Cc1nn(C)cc1NC(=O)[C@@H]1CCCC[C@H]1C(=O)c1ccc(-c2cc[nH]n2)cc1F (racemic) below 6 mL/min/kg, do you know? f

Hi there! Is clearance for Cn1ncc(NC(=O)[C@@H]2CCCC[C@H]2C(=O)c2ccc(-c3cc[nH]n3)cc2)c1C(F)(F)F below 6 mL/min/kg, do you know? t

====

For each of the compounds below, state its logD.
- Assay remarks: Distribution coefficient between octanol and sodium phosphate buffer, logD of the compound in pH 7.4 buffer by LC-MS/MS-based shake flask method
When you answer, write just the number.

So what's the measured logD for this one? Cc1cc(-c2ccc3c([C@@H]4CCCC[C@H]4C(=O)Nc4cn(C)nc4C(N)=O)noc3c2)n[nH]1 3.4

So what's the measured logD for this one? Cn1ncc(NC(=O)[C@@H]2CCCC[C@H]2C(=O)c2ccc(-c3cc[nH]n3)cc2)c1C(F)(F)F 3.6

So what's the measured logD for this one? Cc1nn(C)cc1N(C)C(=O)[C@@H]1CCCC[C@H]1C(=O)c1ccc(-c2cc[nH]n2)cc1 3

So what's the measured logD for this one? Cn1cc(NC(=O)[C@@H]2CCCC[C@H]2C(=O)c2ccc(-c3ccn[nH]3)cc2)c(OC(F)F)n1 3

So what's the measured logD for this one? Cc1cc(-c2cc[nH]n2)ccc1C(=O)[C@@H]1CCCC[C@H]1C(=O)Nc1cn(C)nc1C (racemic) 3

So what's the measured logD for this one? Cn1ncc(NC(=O)[C@@H]2C[C@@H]3C[C@@H]3C[C@H]2C(=O)c2ccc(-c3cc[nH]n3)cc2)c1C(F)(F)F 3.7

So what's the measured logD for this one? O=C(NCCc1ccccn1)[C@@H]1CCCC[C@H]1C(=O)c1ccc(-c2cc[nH]n2)cc1 3

So what's the measured logD for this one? Cn1cc(NC(=O)[C@@H]2C[C@@H]3C[C@@H]3C[C@H]2C(=O)c2ccc(-c3cc[nH]n3)cc2)c(C(F)(F)F)n1 3.7

====

- Assay remarks: Half-life in po or iv dosed Sprague-Dawley rat
- Type: ADME, organism-based
- Settings: in vivo
For each of the compounds below, state its half-life.
Respond with the bare value in min.

So what's the measured half-life for this one? Cc1cc(-c2ccc(C(=O)[C@@H]3CCCC[C@H]3C(=O)Nc3cn(C)nc3C)cc2)n[nH]1 270

So what's the measured half-life for this one? Cn1ncc(NC(=O)[C@@H]2C[C@@H]3C[C@@H]3C[C@H]2C(=O)c2ccc(-c3cc[nH]n3)cc2)c1C(F)(F)F 84

So what's the measured half-life for this one? Cc1cc(-c2ccc(C(=O)[C@@H]3CCCC[C@H]3C(=O)Nc3cn(C)nc3C(N)=O)cc2)n[nH]1 84

So what's the measured half-life for this one? Cn1ncc(NC(=O)[C@@H]2CCCC[C@H]2C(=O)c2ccc(-c3cc[nH]n3)cc2)c1C(F)(F)F 180

So what's the measured half-life for this one? Cn1cc(NC(=O)[C@@H]2CCCC[C@H]2C(=O)c2ccc(-c3cc[nH]n3)cc2)c(C(F)(F)F)n1 96

So what's the measured half-life for this one? Cc1nn(C)cc1NC(=O)[C@@H]1CCCC[C@H]1C(=O)c1ccc(-c2cc[nH]n2)cc1F (racemic) 72

====

- Assay remarks: Intrinsic clearance in cryopreserved human hepatocytes assessed as per million cells at 1 uM measured up to 60 mins by LC-MS/MS analysis
- Assay type: ADME, cell-based, Hepatocyte
- Settings: read-out: CLH
For each of the compounds below, state its hepatocyte CLint at 1 µM.
Respond with the bare value in µL/min/1e6 cells.

So what's the measured hepatocyte CLint at 1 µM for this one? Cn1ncc(NC(=O)[C@@H]2CCCC[C@H]2C(=O)c2ccc(-c3cc[nH]n3)cc2)c1C(F)(F)F 7

So what's the measured hepatocyte CLint at 1 µM for this one? Cc1noc(C)c1NC(=O)[C@@H]1CCCC[C@H]1C(=O)c1ccc(-c2cc[nH]n2)cc1 (racemic) 6

So what's the measured hepatocyte CLint at 1 µM for this one? COc1cc(NC(=O)[C@@H]2CCCC[C@H]2C(=O)c2ccc(-c3cc[nH]n3)cc2)ncn1 22

So what's the measured hepatocyte CLint at 1 µM for this one? Cn1cc(NC(=O)[C@@H]2C[C@@H]3C[C@@H]3C[C@H]2C(=O)c2ccc(-c3cc[nH]n3)cc2)c(C(F)(F)F)n1 13

So what's the measured hepatocyte CLint at 1 µM for this one? CC(C)(O)CNC(=O)c1cnc(NC(=O)[C@@H]2CCCC[C@H]2C(=O)c2ccc(-c3cc[nH]n3)cc2)cn1 (racemic) 4

So what's the measured hepatocyte CLint at 1 µM for this one? Cc1cc(-c2ccc(C(=O)[C@@H]3CCCC[C@H]3C(=O)Nc3cn(C)nc3C(N)=O)c(F)c2)[nH]n1 18

So what's the measured hepatocyte CLint at 1 µM for this one? Cc1cc(-c2ccc3c([C@@H]4C[C@H]5C[C@H]5C[C@H]4C(=O)Nc4cn(C)nc4C(N)=O)noc3c2)n[nH]1 16
